Target: GLP-1 Receptor (Homo sapiens, UniProt P43220)
Sequence (P43220 24-463): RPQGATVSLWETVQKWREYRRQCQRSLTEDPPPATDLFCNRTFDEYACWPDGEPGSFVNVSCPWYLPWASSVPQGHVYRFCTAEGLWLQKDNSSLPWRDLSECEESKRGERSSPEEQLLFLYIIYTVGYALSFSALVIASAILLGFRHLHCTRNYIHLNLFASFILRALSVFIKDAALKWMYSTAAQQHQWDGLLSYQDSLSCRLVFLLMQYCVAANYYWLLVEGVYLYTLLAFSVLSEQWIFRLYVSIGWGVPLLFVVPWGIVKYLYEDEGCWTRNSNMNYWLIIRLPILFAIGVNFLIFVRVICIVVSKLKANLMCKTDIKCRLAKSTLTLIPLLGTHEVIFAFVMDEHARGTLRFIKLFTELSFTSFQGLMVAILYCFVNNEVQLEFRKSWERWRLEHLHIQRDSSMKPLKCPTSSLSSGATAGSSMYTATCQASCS
Assay: GLP-1R agonist cAMP stimulation assay, Method 1 (DiscoverX CHO-K1, enzyme fragment complementation)
Assay type: cell-based
Settings: CHO-K1 cell line (DiscoverX) stably expressing GLP-1 Receptor; incubation 30 or 60 min at 37° C.; geometric mean where n>=2; read-out: GLP1R cAMP Stimulation DR: EC50 (nM) Method 1
# reported EC50; entries follow

Record excerpt, results attached:
compound	EC50
O=C(O)c1ccc2nc(Cc3ccc(-c4cccc(OCc5ccc(Cl)cc5F)n4)cc3)n(C[C@@H]3CCO3)c2n1 [Compound 120aw]	< 0.051 nM
O=C(O)c1ccc2nc(CN3CC=C(c4cccc(OCc5ccc(Cl)cc5F)n4)CC3)n(C[C@@H]3CCO3)c2n1 [Compound 110a]	< 0.051 nM

Turning to the following compound.
Prompt: Name the recorded EC50 of the compound listed here: N#Cc1ccc(COc2cccc(C3=CCC(Cc4nc5ccc(C(=O)O)nc5n4C[C@@H]4CCO4)CC3)n2)c(F)c1 (stereo partly drawn) [Compound 101a]
Completion: < 0.051 nM
